Recorded values, source patent US20230148214A1.

Target: LRRK2 G2019S (Homo sapiens, UniProt Q5S007, G2019S)
Sequence (Q5S007 whole entry G2019S): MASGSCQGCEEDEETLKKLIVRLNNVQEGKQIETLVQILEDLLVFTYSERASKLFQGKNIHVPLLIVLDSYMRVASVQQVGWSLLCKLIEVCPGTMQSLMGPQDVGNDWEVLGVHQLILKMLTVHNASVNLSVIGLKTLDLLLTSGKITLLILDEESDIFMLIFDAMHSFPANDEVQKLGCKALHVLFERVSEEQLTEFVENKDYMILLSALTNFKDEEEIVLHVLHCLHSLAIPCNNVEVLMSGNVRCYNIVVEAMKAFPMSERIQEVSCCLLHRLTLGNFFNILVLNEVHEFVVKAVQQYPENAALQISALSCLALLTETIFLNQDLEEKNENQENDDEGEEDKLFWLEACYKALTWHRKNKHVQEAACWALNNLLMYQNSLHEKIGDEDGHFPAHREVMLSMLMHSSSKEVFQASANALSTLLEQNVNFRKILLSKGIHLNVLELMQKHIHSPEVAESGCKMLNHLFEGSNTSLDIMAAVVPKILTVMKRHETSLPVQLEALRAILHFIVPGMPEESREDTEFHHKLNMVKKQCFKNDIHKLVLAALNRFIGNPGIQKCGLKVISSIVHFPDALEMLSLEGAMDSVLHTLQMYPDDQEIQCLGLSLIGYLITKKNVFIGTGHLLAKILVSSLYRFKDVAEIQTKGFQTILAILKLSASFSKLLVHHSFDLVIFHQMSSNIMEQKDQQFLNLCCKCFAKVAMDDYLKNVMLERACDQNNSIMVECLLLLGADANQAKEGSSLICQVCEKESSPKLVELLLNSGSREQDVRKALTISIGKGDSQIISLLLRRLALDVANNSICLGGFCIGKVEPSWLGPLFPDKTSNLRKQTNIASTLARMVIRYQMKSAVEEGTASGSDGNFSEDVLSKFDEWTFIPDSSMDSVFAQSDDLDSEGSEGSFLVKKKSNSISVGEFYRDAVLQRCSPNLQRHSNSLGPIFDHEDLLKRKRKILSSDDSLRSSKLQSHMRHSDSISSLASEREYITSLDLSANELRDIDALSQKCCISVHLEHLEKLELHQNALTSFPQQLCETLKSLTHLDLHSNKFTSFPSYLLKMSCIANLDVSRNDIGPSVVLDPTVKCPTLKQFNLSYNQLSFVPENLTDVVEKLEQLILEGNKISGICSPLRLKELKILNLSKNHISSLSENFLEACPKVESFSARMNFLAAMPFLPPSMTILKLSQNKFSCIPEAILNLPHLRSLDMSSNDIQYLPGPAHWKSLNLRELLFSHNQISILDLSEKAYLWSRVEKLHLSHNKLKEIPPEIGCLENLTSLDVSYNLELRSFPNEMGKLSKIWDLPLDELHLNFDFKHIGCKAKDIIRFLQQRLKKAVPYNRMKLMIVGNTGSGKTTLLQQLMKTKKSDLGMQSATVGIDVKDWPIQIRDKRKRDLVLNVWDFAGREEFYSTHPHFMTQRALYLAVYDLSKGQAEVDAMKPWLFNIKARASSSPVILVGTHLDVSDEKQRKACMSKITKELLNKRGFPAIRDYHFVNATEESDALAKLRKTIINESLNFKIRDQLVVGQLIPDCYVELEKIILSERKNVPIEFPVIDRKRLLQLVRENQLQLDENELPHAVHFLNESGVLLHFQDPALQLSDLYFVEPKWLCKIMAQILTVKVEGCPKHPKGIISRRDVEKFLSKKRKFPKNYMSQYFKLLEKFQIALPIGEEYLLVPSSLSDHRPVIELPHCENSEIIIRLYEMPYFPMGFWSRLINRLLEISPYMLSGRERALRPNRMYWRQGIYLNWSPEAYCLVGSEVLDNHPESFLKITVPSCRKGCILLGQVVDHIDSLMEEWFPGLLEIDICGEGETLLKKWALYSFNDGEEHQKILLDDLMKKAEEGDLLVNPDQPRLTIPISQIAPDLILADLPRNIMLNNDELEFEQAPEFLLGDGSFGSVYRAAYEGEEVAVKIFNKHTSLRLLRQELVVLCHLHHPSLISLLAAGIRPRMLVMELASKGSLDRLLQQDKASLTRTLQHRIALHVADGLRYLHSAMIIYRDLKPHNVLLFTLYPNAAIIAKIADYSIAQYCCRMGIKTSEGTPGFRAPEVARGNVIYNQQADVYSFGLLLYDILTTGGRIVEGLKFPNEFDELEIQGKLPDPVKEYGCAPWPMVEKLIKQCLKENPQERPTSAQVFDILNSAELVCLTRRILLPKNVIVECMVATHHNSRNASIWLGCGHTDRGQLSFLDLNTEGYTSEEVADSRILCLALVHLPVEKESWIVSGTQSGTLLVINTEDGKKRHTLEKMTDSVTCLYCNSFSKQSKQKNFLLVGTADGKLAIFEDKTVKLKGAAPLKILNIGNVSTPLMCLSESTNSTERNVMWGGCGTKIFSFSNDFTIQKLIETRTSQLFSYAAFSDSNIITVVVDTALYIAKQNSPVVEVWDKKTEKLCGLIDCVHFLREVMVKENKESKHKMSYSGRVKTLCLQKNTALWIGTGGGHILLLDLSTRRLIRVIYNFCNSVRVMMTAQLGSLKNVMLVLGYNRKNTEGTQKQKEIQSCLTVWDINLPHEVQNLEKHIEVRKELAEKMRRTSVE
Assay: LRRK2 Kinase Activity Assay (LanthaScreen TR-FRET), G2019S
Details: recombinant G2019S-LRRK2, 25 μM ATP, 400 nM LRRKtide, 60 min; class symbols
IC50: recorded values

| COMPOUND | IC50 |
| --- | --- |
| N#Cc1ccc2c(c1)CCC[C@@H]2Nc1ccc2[nH]nc(-c3ccc(C(=O)N4CCOCC4)cc3)c2c1 (single isomer, unassigned) | < 100 nM |
| COc1c(C#N)ccc2c1CC[C@@H]2Nc1ccc2[nH]nc(-c3cnco3)c2c1 (single isomer, unassigned) [Example 113, enantiomer 1] | < 100 nM |
| N#Cc1ccc2c(c1)CCC[C@@H]2Nc1ccc2[nH]nc(-c3ccc4c(c3)OCO4)c2c1 (single isomer, unassigned) | < 100 nM |

====

IC50: recorded values
Target: LRRK2 WT (Homo sapiens)
Construct: purchased Life Technologies PR8604B
Assay: LRRK2 Kinase Activity Assay (LanthaScreen TR-FRET), wild type
Format: biochemical
Details: recombinant wild type LRRK2, 25 μM ATP, 400 nM LRRKtide, 60 min; class symbols
Experimental: LRRK2 kinase activity was measured using a LanthaScreen™ Kinase Activity Assay from ThermoFisher Scientific. Recombinant wild type or G2019S-LRRK2 protein (Life Technologies, PR8604B or PV4881, respectively), was incubated with a fluorescein-labeled peptide substrate called LRRKtide that is based upon ezrin/radixin/moesin (ERM) (Life Technologies, PV4901) in the presence of ATP and serially diluted compound. […]
METRIC_NAME: IC50

| COMPOUND | VAL |
| --- | --- |
| N#Cc1cc2c(cn1)[C@H](Oc1ccc3[nH]nc(-c4cnco4)c3c1)CCC2 (single isomer, unassigned) [Example 122, enantiomer 2] | < 100 nM |
| Cn1cc(-c2n[nH]c3ccc(N[C@H]4CCCc5cc(C#N)ccc54)cc23)ccc1=O (single isomer, unassigned) | < 100 nM |
| CCc1cc(-c2n[nH]c3ccc(N[C@H]4CCCc5cc(C#N)ccc54)cc23)ccn1 (single isomer, unassigned) [Example 116, enantiomer 1] | < 100 nM |
| Cc1cc2c(cc1C#N)CC[C@@H]2Nc1ccc2[nH]nc(-c3cnco3)c2c1 (single isomer, unassigned) [Example 28, enantiomer 2] | < 100 nM |
| COc1cc(OC)cc(-c2n[nH]c3ccc(N[C@H]4CCCc5cc(C#N)ccc54)cc23)c1 (single isomer, unassigned) | 100 to 1000 nM |
| N#Cc1ccc2c(c1F)CC[C@H]2Nc1ccc2[nH]nc(-c3cnn(C(F)F)c3)c2c1 (single isomer, unassigned) [Example 53, enantiomer 2] | 100 to 1000 nM |

====

Molecular target: LRRK2 WT (Homo sapiens, UniProt Q5S007)
Construct: purchased Life Technologies PR8604B
Sequence (Q5S007 whole entry): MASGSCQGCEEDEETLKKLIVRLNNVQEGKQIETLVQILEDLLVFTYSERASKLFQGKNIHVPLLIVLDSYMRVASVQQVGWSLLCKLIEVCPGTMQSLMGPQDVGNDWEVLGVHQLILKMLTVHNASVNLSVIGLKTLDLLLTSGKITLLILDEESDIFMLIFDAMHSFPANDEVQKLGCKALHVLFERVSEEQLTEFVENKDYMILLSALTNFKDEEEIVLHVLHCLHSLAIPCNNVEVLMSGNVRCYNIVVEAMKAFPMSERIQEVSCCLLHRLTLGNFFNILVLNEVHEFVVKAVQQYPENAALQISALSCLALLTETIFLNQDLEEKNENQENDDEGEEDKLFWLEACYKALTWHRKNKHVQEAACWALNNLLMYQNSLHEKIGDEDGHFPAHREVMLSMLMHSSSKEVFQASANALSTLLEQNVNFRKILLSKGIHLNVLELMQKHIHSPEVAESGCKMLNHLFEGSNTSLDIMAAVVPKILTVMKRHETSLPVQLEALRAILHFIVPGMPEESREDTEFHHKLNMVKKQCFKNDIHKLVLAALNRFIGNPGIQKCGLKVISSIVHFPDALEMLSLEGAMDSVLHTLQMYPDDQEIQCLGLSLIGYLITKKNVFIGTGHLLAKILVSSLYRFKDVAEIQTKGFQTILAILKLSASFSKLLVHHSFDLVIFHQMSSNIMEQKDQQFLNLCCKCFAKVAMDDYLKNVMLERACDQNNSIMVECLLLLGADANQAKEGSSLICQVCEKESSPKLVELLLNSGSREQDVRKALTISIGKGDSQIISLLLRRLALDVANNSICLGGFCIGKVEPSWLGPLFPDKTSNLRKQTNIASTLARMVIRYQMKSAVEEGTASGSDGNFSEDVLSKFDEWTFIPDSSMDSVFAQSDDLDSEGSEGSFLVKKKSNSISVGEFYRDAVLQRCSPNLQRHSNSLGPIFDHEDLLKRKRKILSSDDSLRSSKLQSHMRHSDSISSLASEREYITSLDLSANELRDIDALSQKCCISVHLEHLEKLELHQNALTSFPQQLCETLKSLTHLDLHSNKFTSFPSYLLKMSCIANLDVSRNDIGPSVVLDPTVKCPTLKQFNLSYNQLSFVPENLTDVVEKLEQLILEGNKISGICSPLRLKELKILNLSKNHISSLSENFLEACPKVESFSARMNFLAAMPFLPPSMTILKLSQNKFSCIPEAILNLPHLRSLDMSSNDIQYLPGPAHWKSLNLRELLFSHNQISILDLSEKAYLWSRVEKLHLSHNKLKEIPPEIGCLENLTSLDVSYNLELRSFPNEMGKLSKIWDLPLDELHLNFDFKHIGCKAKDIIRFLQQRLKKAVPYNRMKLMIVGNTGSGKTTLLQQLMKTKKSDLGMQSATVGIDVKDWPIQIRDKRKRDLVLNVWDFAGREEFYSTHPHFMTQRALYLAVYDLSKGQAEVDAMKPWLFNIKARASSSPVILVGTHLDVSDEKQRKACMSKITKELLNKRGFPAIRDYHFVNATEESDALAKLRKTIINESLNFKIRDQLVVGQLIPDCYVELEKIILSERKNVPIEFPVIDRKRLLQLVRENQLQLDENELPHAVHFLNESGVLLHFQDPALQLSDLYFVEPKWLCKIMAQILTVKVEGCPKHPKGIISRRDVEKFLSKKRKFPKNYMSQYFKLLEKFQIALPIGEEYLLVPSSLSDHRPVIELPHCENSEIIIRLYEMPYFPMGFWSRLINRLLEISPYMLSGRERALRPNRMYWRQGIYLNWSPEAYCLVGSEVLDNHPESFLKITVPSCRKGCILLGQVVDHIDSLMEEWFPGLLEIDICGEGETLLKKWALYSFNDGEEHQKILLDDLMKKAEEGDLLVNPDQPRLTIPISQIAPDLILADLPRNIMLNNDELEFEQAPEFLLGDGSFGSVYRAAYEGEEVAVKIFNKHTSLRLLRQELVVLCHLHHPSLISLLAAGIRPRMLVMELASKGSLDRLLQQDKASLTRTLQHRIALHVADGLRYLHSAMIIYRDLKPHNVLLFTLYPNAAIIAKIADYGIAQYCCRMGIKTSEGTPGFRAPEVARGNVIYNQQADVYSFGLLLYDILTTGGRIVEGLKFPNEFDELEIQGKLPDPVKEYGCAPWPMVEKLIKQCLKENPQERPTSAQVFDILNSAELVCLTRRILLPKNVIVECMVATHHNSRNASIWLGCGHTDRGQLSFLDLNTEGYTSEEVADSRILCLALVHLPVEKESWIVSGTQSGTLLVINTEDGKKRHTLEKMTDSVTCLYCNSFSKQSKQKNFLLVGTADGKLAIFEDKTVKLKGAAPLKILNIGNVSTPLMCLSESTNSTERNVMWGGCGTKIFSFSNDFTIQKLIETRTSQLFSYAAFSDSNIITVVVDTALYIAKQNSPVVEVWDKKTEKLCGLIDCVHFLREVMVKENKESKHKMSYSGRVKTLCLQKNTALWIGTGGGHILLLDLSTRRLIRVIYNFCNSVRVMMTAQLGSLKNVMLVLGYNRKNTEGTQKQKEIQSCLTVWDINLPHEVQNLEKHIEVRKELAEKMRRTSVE
Experiment: LRRK2 Kinase Activity Assay (LanthaScreen TR-FRET), wild type
Format: biochemical
Conditions: recombinant wild type LRRK2, 25 μM ATP, 400 nM LRRKtide, 60 min; class symbols
IC50: recorded values
METRIC_NAME: IC50

| MOLECULE | VAL |
| --- | --- |
| N#Cc1cnc2c(n1)CC[C@@H]2Oc1ccc2[nH]nc(-c3cnco3)c2c1 (single isomer, unassigned) [182, enantiomer 1] | < 100 nM |
| Cc1c(C#N)c(Cl)nc2c1CCC[C@@H]2Nc1ccc2[nH]nc(C3CC3)c2c1 (single isomer, unassigned) [183, enantiomer 2] | < 100 nM |
| N#Cc1ccc2c(c1)CC[C@@H]2Nc1ccc2[nH]nc(-c3cnoc3)c2c1 (single isomer, unassigned) [Example 8, enantiomer 2] | < 100 nM |

====

Biological target: LRRK2 G2019S (Homo sapiens, UniProt Q5S007, G2019S)
Test: LRRK2 Kinase Activity Assay (LanthaScreen TR-FRET), G2019S
Conditions: recombinant G2019S-LRRK2, 25 μM ATP, 400 nM LRRKtide, 60 min; class symbols
pIC50: −log10 of the molar value.
METRIC_NAME: pIC50

| COMPOUND | METRIC_NAME | VAL |
| --- | --- | --- |
| N#Cc1cnc2c(c1)CCC[C@@H]2Oc1ccc2[nH]nc(-c3cnoc3)c2c1 (single isomer, unassigned) [Example 2, enantiomer 1] | pIC50 | > 7.00 |
| N#Cc1cnc2c(c1)CCC[C@@H]2Nc1ccc2[nH]nc(Cl)c2c1 (single isomer, unassigned) [Example 126, enantiomer 1] | pIC50 | 5.00 to 6.00 |
| N#Cc1cnc2c(c1)CCC[C@@H]2Oc1ccc2[nH]nc(-c3cnn(C(F)F)c3)c2c1 (single isomer, unassigned) [Example 141, enantiomer 1] | pIC50 | > 7.00 |
| N#Cc1cc2c(cc1F)[C@@H](Oc1ccc3[nH]nc(-c4cnco4)c3c1)CCC2 (single isomer, unassigned) [180, enantiomer 1] | pIC50 | > 7.00 |
| N#Cc1ccc2c(c1)CC(F)(F)[C@@H]2Nc1ccc2[nH]nc(-c3cnco3)c2c1 (single isomer, unassigned) [Example 42, enantiomer 1] | pIC50 | > 7.00 |
| Cc1cc2[nH]nc(-c3cnco3)c2cc1NC1CCCc2cc(C#N)cnc21 (single isomer, unassigned) [190, enantiomer 1] | pIC50 | > 7.00 |
| COc1n[nH]c2ccc(O[C@H]3CCCc4cc(C#N)c(Br)nc43)cc12 (single isomer, unassigned) [188, enantiomer 1] | pIC50 | > 7.00 |
| COc1cc2c(cc1C#N)CCC[C@@H]2Nc1ccc2[nH]nc(-c3cnoc3)c2c1 (single isomer, unassigned) [Example 114, enantiomer 1] | pIC50 | 6.00 to 7.00 |
| Cc1ncc(-c2n[nH]c3ccc(N[C@@H]4c5ccc(C#N)cc5CC4(F)F)cc23)o1 (single isomer, unassigned) [Example 155, enantiomer 1] | pIC50 | > 7.00 |
| N#Cc1cnc2c(c1)OCC[C@@H]2Nc1ccc2[nH]nc(-c3cnco3)c2c1 (single isomer, unassigned) [194, enantiomer 2] | pIC50 | 6.00 to 7.00 |
| N#Cc1ccc2c(n1)CCC[C@H]2Oc1ccc2[nH]nc(C3CC3)c2c1 (single isomer, unassigned) [Example 133, enantiomer 1] | pIC50 | 6.00 to 7.00 |
| C/C=C/c1n[nH]c2ccc(N[C@H]3CCCc4cc(C#N)ccc43)cc12 (single isomer, unassigned) | pIC50 | > 7.00 |

====

Target: LRRK2 WT (Homo sapiens)
Construct: purchased Life Technologies PR8604B
Assay: LRRK2 Kinase Activity Assay (LanthaScreen TR-FRET), wild type
Assay type: biochemical
Conditions: recombinant wild type LRRK2, 25 μM ATP, 400 nM LRRKtide, 60 min; class symbols
pIC50: −log10 of the molar value.

| MOLECULE | pIC50 |
| --- | --- |
| N#Cc1cc2c(cc1F)[C@@H](Oc1ccc3[nH]nc(-c4cnco4)c3c1)CCC2 (single isomer, unassigned) [180, enantiomer 1] | > 7.00 |
| Cc1cc(-c2n[nH]c3ccc(N[C@H]4CCCc5cc(C#N)cnc54)cc23)sn1 (single isomer, unassigned) [Example 158, enantiomer 1] | > 7.00 |
| Cc1c(C#N)cnc2c1CCC[C@@H]2Nc1ccc2[nH]nc(-c3cnco3)c2c1 (single isomer, unassigned) [Example 150, enantiomer 1] | 6.00 to 7.00 |
| Cc1ncc(-c2n[nH]c3ccc(N[C@H]4CCCc5cc(C#N)c(C)nc54)cc23)o1 (single isomer, unassigned) [Example 159, enantiomer 1] | > 7.00 |
| N#Cc1cnc2c(c1)CCC[C@H]2Nc1ccc2[nH]nc(-c3cnco3)c2c1 (single isomer, unassigned) [Example 120, enantiomer 2] | > 7.00 |
| N#Cc1ccc(-c2n[nH]c3ccc(N[C@H]4CCCc5cc(C#N)ccc54)cc23)cc1 (single isomer, unassigned) | 6.00 to 7.00 |
| COc1ccc(-c2n[nH]c3ccc(N[C@H]4CCCc5cc(C#N)ccc54)cc23)cc1C (single isomer, unassigned) | 6.00 to 7.00 |
| N#Cc1ccc2c(c1)CCC[C@@H]2Nc1ccc2[nH]nc(-c3cnoc3)c2c1 (single isomer, unassigned) [Example 6, enantiomer 1] | > 7.00 |
| N#Cc1ccc2c(c1)CCC[C@@H]2Nc1ccc2[nH]nc(-c3ccn[nH]3)c2c1 (single isomer, unassigned) [Example 157, enantiomer 1] | 6.00 to 7.00 |
| N#Cc1ccc2c(c1)CCC[C@@H]2Nc1ccc2[nH]nc(-c3ccc4ncsc4c3)c2c1 | > 7.00 |
| N#Cc1cnc2c(c1)CC[C@@H]2Nc1ccc2[nH]nc(-c3cnco3)c2c1 (single isomer, unassigned) [Example 109, enantiomer 1] | > 7.00 |
| N#Cc1ccc2c(c1)CC[C@@H]2Oc1ccc2[nH]nc(-c3cnn(C(F)F)c3)c2c1 (single isomer, unassigned) [Example 4, enantiomer 1] | 6.00 to 7.00 |
| C[C@@H]1CCc2cc(C#N)ccc2[C@H]1Oc1ccc2[nH]nc(-c3cnco3)c2c1 (single isomer, unassigned) [176, enantiomer 1] | 6.00 to 7.00 |
| CC1(C)CC[C@H](Nc2ccc3[nH]nc(-c4cnco4)c3c2)c2ccc(C#N)cc21 (single isomer, unassigned) [Example 115, enantiomer 2] | 6.00 to 7.00 |
| CC(=O)Nc1cccc(-c2n[nH]c3ccc(N[C@H]4CCCc5cc(C#N)ccc54)cc23)c1 (single isomer, unassigned) | > 7.00 |
